The values you see were collected from the supplement of paper PMC12764529.

Measurement description: folding stability dG unfold (combined trypsin and chymotrypsin); higher = more stable
Label scheme for folding stability dG unfold: lower than 2 kcal/mol is Not satisfied, 2 kcal/mol and above is Satisfied.

# example entries with known answers
[[record]]
primary_sequence = "SAGGSAGGQEEEAEALAKEVEAPAREALPGTEVTVTVTVTRREDGSLEVDVTIEGDFALPAALLSAGGSAGG [r6_999_JUSTAS]"
label_class = "Not satisfied"

[[record]]
primary_sequence = "SAGGSAGGPEVKILKVDPENNTITLALPVDNEILLLEIKIEPDPENPNSFKATIELKVFPYNEASAGGSAGG [r6_371_TrMRF]"
label_class = "Satisfied"

[[record]]
primary_sequence = "SAGGSAGGKPKMTFPITDIYPPPGGGNVFIRIQSDDKPREFPFPNLENLEIEKDPEDGTVKIKWSAGGSAGG [r6_806_TrROS]"
label_class = "Not satisfied"


Now consider a different sequence.
Q: State whether the measured folding stability dG unfold reaches 2 kcal/mol, counting equality as reaching it, for SAGGSAGGSAGGSWLVRIPGHPIIFKGPEDQAEGIARELQKNGKPIEIEIIDPDEMKKFSAGGSAGGSAGGS [r4_131_TrROS]
Result: Not satisfied
